Entries and their growth values follow.
# Test system: NCI/ADR-RES ovarian
# EXPERIMENT SUMMARY: NCI-60 one-dose screen, 48 h (100 = growth as untreated, 0 = no growth, -100 = all killed)
# TEST SETTINGS: 10 µM unless noted
# Experimental: Growth inhibition of the NCI/ADR-RES human […] tumor cell line is measured as a screen for anti-cancer activity. Cells are grown in 96 well plates and exposed to the test compound for 48 hours. Compounds are tested at a single concentration, which is 10^-5 M for most compounds. The reported endpoint is percent growth (GI% or GIPRCNT), where numbers from 0 - 100% represent growth inhibition, and numbers from -100% - 0 represent cell death. For example, a value of 40 represents 60% growth inhibition. […]
Compounds without any hit were thinned out: in the full panel of roughly 83,000, 20% have a hit.
Field: numeric (%). Do not append units.

Input: Give the measured growth for O=C(O)/C(Br)=C/c1c[nH]c2ccc(Br)cc12
Output: 102

Input: Give the measured growth for N=C(N)N=Nc1ccc(NN=C(N)N)c2ccccc12
Output: 110

Input: Give the measured growth for COc1cc(OC)cc(-c2ccc(-c3ccc(C(=N)N)cc3)s2)c1
Output: -51.4

Input: Give the measured growth for CCCCn1c(Cc2ccc(OC)cc2)nc2cc(OC)c(OC)cc2c1=O
Output: 72.5

Input: Give the measured growth for CC1(C)C(O)NC(Cl)=C(C#N)C1(C#N)C#N (stereo not drawn)
Output: 103

Input: Give the measured growth for O=c1c(N=Nc2nccs2)c(-c2ccccc2)[nH]n1-c1nc(-c2ccccc2)cs1
Output: 10.1

* * *

Entries and their growth values follow.
# Test system: TK-10 renal
# EXPERIMENT SUMMARY: NCI-60 one-dose screen, 48 h (100 = growth as untreated, 0 = no growth, -100 = all killed)
# TEST SETTINGS: 10 µM unless noted
This is part of a sample that, as a whole, favours compounds with a hit. Of some 83,000 tested, about 20% had one in any assay.
Field: numeric (%). Do not append units.

Recorded growth, per entry:
Input: Give the measured growth for O=C(Nn1cnc2ccccc21)N1CCCC1
Output: 113

Input: Give the measured growth for COc1ccc(-c2nc(SCC(C)C)nc(Nc3ccc(C)cc3)c2C#N)cc1
Output: 43.3

Input: Give the measured growth for N#CCCCCCCCCCCC#N
Output: 92.4

Input: Give the measured growth for O=C(CCl)NC1c2ccccc2Oc2ccccc21
Output: 84.4

Input: Give the measured growth for O=C(N/N=C\c1ccc(Cl)cc1)C(=O)N/N=C\c1ccc(Cl)cc1
Output: 105

New cases:
Input: Give the measured growth for O=C(Nc1ccc(-n2cc(-c3ccncc3)c(-c3ccc(Cl)c(O)c3)n2)cc1)c1cc(C(F)(F)F)cc(C(F)(F)F)c1
Output: 65.4

* * *

# System: LOX IMVI melanoma
# EXPERIMENT SUMMARY: NCI-60 one-dose screen, 48 h
# TEST SETTINGS: 10 µM unless noted
About 83,000 compounds went through this panel and 20% of them were active in at least one assay; those are over-represented in the sample as a whole. Calls of active or inactive are those of the source. How the source made its calls: active means growth percent below 10; inactive means the rest.
Give one outcome, nothing more. List: active, inactive

Answered cases to consult:
Input: Test call for this compound, please: N#Cc1c2ncccc2c2nnc3cc(Cl)c(Cl)cc3n12
Output: inactive

Input: Test call for this compound, please: CC[N+](C)(C)N
Output: inactive

Input: Test call for this compound, please: Cc1ccc(C(=O)NN)cc1
Output: inactive

New cases:
Input: Test call for this compound, please: CC1CCCCC[N+]12CCCC2 (configuration not stated)
Output: inactive

Input: Test call for this compound, please: Oc1ccc(Br)cc1/C=N/NC(=S)NC12CC3CC(CC(C3)C1)C2
Output: active

Input: Test call for this compound, please: CC1=NN(c2cccc(Cl)c2)C(=O)/C1=C\c1cn(-c2nc(N3CCOCC3)nc(N3CCOCC3)n2)c2ccccc12
Output: inactive

Input: Test call for this compound, please: COc1ccc(/C=C2\CCCC3=C2N=C2SC=NN2C3c2ccc(OC)c(OC)c2)cc1OC (configuration not stated)
Output: active

Input: Test call for this compound, please: CCCNC(=O)Oc1ccc(/C(=C(/C)Cc2ccc(OC)cc2)c2ccc(OCCN3CCCC3)cc2)cc1
Output: inactive

Input: Test call for this compound, please: CCc1c(C)c2ccc(OCC(=O)N=Nc3c(O)[nH]c4ccccc34)c(C)c2oc1=O
Output: active

Input: Test call for this compound, please: CCCCCCCCCCCCCCCCNC(=S)N/N=C/c1ccc(O)cc1O
Output: inactive

* * *

Entries and their growth values follow.
# System: OVCAR-4 ovarian
# EXPERIMENT SUMMARY: NCI-60 one-dose screen, 48 h (100 = growth as untreated, 0 = no growth, -100 = all killed)
# TEST SETTINGS: 10 µM unless noted
The panel holds about 83,000 compounds, 20% with a hit somewhere; the sample as a whole holds those more often.
Field: numeric (%). Do not append units.

Recorded growth, per entry:
Input: Give the measured growth for COc1ccc(/C=C2\CCCC3=C2N=C2SC=NN2C3c2ccc(OC)c(OC)c2)cc1OC (stereo unspecified)
Output: 49.1

Input: Give the measured growth for CCCCCCCCCC(C)NC(=O)CCl (stereo unspecified)
Output: 89.4

Input: Give the measured growth for COc1cc(N)c2nccc(C)c2c1OC
Output: 94.4

Input: Give the measured growth for CCOC(=O)c1cc(-c2ccc(OC)cc2)[nH]c1NNC(=O)CCOC
Output: 113

Input: Give the measured growth for CCCCN(CCC)CCCCCCCCCCN1CCCc2ccccc21
Output: 79.4

Could you now look at the following compound, please?
Input: Give the measured growth for COc1ccc(OC)c(Cn2cc3c(c2-c2ccccc2)CCc2cnoc2-3)c1
Output: 77.6

* * *

# Test system: SW-620 colon
# EXPERIMENT SUMMARY: NCI-60 one-dose screen, 48 h (100 = growth as untreated, 0 = no growth, -100 = all killed)
# TEST SETTINGS: 10 µM unless noted
The panel holds about 83,000 compounds, 20% with a hit somewhere; the sample as a whole holds those more often.
Entries and their growth values follow.
Field: numeric (%). Do not append units.

Recorded growth, per entry:
Input: Give the measured growth for CC(C)(C)c1ccc(OCCOC(=O)CBr)cc1
Output: 86.2

Input: Give the measured growth for CCCNC(=O)Oc1ccc(/C(=C(/C)Cc2ccc(OC)cc2)c2ccc(OCCN3CCCCC3)cc2)cc1
Output: 90.4

Input: Give the measured growth for CCOC(=O)C1=C(C(F)(F)F)NC(=O)NC1CN1C(=O)c2ccccc2C1=O (stereo not drawn)
Output: 105

Input: Give the measured growth for CC(C)OC(=O)c1ccc2n1CCCc1cnc(Nc3ccccc3)nc1-2
Output: 91

New cases:
Input: Give the measured growth for COc1cc2c(cc1OC)C(Cc1cc(OC)c(OC)cc1[N+](=O)[O-])=NCC2
Output: 82

Input: Give the measured growth for COC(=O)c1ccc2[nH]c(O)c(C(=Nc3ccc(N(C)C(=O)CN4CCN(C)CC4)cc3)c3cccc(OC)c3)c2c1
Output: 2.03

Input: Give the measured growth for COC(=O)[C@@H]1[C@H](O)[C@H](C)[C@H](O)[C@H](C)/C=C\C=C(C)C(=O)Nc2c(C)c(OC(C)=O)c3c(c2O)C(=O)C(C)=C2OCOC(=C23)C(C)=C[C@@](C)(O)[C@H](O)[C@@H](C)[C@H]1OC(C)=O
Output: 117

Input: Give the measured growth for Nc1ccc(S(=O)(=O)Nc2cc(F)cc(F)c2)cc1
Output: 91.6

* * *

Entries and their growth values follow.
# Tested on: TK-10 renal
# EXPERIMENT SUMMARY: NCI-60 one-dose screen, 48 h (100 = growth as untreated, 0 = no growth, -100 = all killed)
# TEST SETTINGS: 10 µM unless noted
Compounds without any hit were thinned out: in the full panel of roughly 83,000, 20% have a hit.
Field: numeric (%). Do not append units.

Recorded growth, per entry:
Input: Give the measured growth for Cc1ncc(C(=O)Nc2ccc(CN3CCN(C)CC3)c(C(F)(F)F)c2)cc1C#Cc1c(N)ncc2ccccc12
Output: -99.4

Input: Give the measured growth for CCOc1ccc2nc3ccc(Cl)cc3nc2c1
Output: 95.1

Input: Give the measured growth for COC(=O)/C=C/c1cc(O)c2oc(-c3ccc(O)c(O)c3)c(C(=O)OC)c2c1
Output: 46.7

Input: Give the measured growth for CCOc1ccccc1/C=N\N=C(N/N=C/c1ccccc1OCC)N/N=C/c1ccccc1OCC
Output: 27.8

Input: Give the measured growth for O=C(/C=C\c1ccc(NCc2ccc(C(=O)O)cc2)cc1)CCl
Output: 93.4

New cases:
Input: Give the measured growth for CCCCCc1ccnc(CC(=O)c2ccc(OC)cc2)c1
Output: 82

Input: Give the measured growth for CC[N+](C)(C)N
Output: 100

Input: Give the measured growth for CCOC(=O)CNS(=O)(=O)CC(=O)c1ccccc1
Output: 80.9

Input: Give the measured growth for CC(=O)NCCN
Output: 109

Input: Give the measured growth for O=C(c1ccccc1)c1ccccc1-c1ccccc1
Output: 8.04

Input: Give the measured growth for O=C(/C=C1\C(=O)N(Cc2ccc([N+](=O)[O-])cc2)c2ccccc21)c1ccc(OCCN2CCCC2)cc1
Output: 82.8

Input: Give the measured growth for CCOC(=O)c1sc(NS(=O)(=O)c2ccccc2)nc1C
Output: 163

Input: Give the measured growth for CSc1nc(N)n2nccc2n1
Output: 99.8

Input: Give the measured growth for O=C(CN1CCN(c2cccc(Cl)c2)CC1)N1CCN(c2nnc(-c3ccc(Cl)cc3)c(-c3ccc(Cl)cc3)n2)CC1
Output: 90.2

Input: Give the measured growth for O=Nc1c(-c2c(O)[nH]c3cc(Br)ccc23)[nH]c2ccccc12
Output: -10.5

Input: Give the measured growth for CCCCCCCCCCCCCCCCC(=O)O.CCCCCCCCCCCCCCCCCC(=O)O.CCCCCCCCCCCCCCCCCC(=O)O.CCCCCCCCCCCCCCCCCC(=O)O.CCCCCCCCCCCCCCCCCC(=O)O.CO[CH-]OC12COC1CC(O)C1(C)C(O)C(OC(C)O)C3=C(C)C(OC(=O)C(O)C([NH-])c4ccccc4)CC(O)(C(OC(=O)c4ccccc4)C21)C3(C)C.[Cu+].[Zn].[Zn].[Zn].[Zn].[Zn] (stereo not given)
Output: 48

Input: Give the measured growth for O=C(Nc1ccc(-n2cc(-c3ccncc3)c(-c3ccc(Cl)c(O)c3)n2)cc1)c1cc(Cl)cc(Cl)c1
Output: 61.3

Input: Give the measured growth for COc1cc(CNC(=O)CCCC/C=C/C(C)C)ccc1OCc1nnc(Nc2ccccc2F)o1
Output: 97.7

Input: Give the measured growth for N#Cc1c2ncccc2c2nnc3cc(Cl)c(Cl)cc3n12
Output: 67.7

Input: Give the measured growth for Oc1ccccc1\C=N/N=C/C=C/c1ccccc1
Output: 130
